assay_protocol: Solution stability assay (pH 1.0 and pH 7.4, 37° C.)
Format: physicochemical
condition_notes: pH 7.4; conversion of the prodrug to compound 1; 37° C.; read-out: Aq. Stability half-life (pH 1/7.4) Hrs (converted)
Reported half-life values follow for various molecules
A number alone suffices; assume h.

- molecule: "CC(C)[C@@H](NC(=O)NCC(C)(C)OC(=O)OCOC(=O)C1(N)CC1)C(=O)N1CC[C@](O)(c2ccc(Cl)cc2)C(C)(C)C1 [Example 14]"
  unit_spec: "h"
  numeric_readout: 107
- molecule: "CC(C)[C@@H](NC(=O)NCC(C)(C)OC(=O)OCOC(=O)C(C)(C)N)C(=O)N1CC[C@](O)(c2ccc(Cl)cc2)C(C)(C)C1 [Example 13]"
  unit_spec: "h"
  numeric_readout: 0.25

We next turn to a different molecule, shown below.
Prompt: Return reported half-life; argument: CC(C)[C@@H](N)C(=O)OCOC(=O)OC(C)(C)CNC(=O)N[C@@H](C(=O)N1CC[C@](O)(c2ccc(Cl)cc2)C(C)(C)C1)C(C)C [Example 12]
Completion: 0.3

----------
assay_protocol: Solution stability assay (pH 1.0 and pH 7.4, 37° C.)
Format: physicochemical
condition_notes: pH 1; parent compound; read-out: chemical stability half-life (converted)
endpoint: half-life (h)
Report only the number, with the unit h understood.

Prompt: Give its half-life value. Item: `CC(C)[C@@H](NC(=O)NCC(C)(C)O)C(=O)N1CC[C@](O)(c2ccc(Cl)cc2)C(C)(C)C1`
Completion: 30

----------
assay_protocol: Solution stability assay (pH 1.0 and pH 7.4, 37° C.)
Assay type: physicochemical
condition_notes: pH 7.4; conversion of the prodrug to compound 1; 37° C.; read-out: Aq. Stability half-life (pH 1/7.4) Hrs (converted)
The compounds listed here are annotated with their half-life.
Number only, in h; omit the unit.

Prompt: // half-life lookup, key: `CC(C)[C@@H](NC(=O)NCC(C)(C)OC(=O)OCOC(=O)/C=C/C(=O)O)C(=O)N1CC[C@](O)(c2ccc(Cl)cc2)C(C)(C)C1`
Completion: 49

Prompt: What value of half-life has been recorded for this entry: `CC(C)[C@@H](NC(=O)NCC(C)(C)O)C(=O)N1CC[C@](OCOC(=O)[C@@H](C)O)(c2ccc(Cl)cc2)C(C)(C)C1`
Completion: 73

Prompt: Please look up its half-life: `CC(C)[C@@H](NC(=O)NCC(C)(C)OC(=O)CN)C(=O)N1CC[C@](O)(c2ccc(Cl)cc2)C(C)(C)C1`
Completion: 86

----------
assay_protocol: Solution stability assay (pH 1.0 and pH 7.4, 37° C.)
Type: physicochemical
condition_notes: pH 1; conversion of the prodrug to compound 1; 37° C.; read-out: Aq. Stability half-life (pH 1/7.4) Hrs (converted)
Method: Acetonitrile Stock Solution: Prepare an Acetonitrile Stock Solution of the prodrug by dissolving 1.5-2.0 mg of accurately weighted compound in 5.0 mL of acetonitrile in 5 mL volumetric flask. […] Following the sample preparation procedure described above a single sample (n=1) is prepared for each pH condition. The samples were then placed in an HPLC autosampler maintained at 37° C. and samples were analyzed over a 24 hr period. […]
satisfied if half-life is below 50 h. not satisfied if not; exact matches included in not satisfied.

Prompt: Take the molecule `CC(C)[C@@H](NC(=O)NCC(C)(C)OC(=O)OCOC(=O)C(C)(C)N)C(=O)N1CC[C@](O)(c2ccc(Cl)cc2)C(C)(C)C1` and say whether its half-life is less than 50 h.
Completion: satisfied

Prompt: Please let me know if `CC(C)[C@@H](NC(=O)NCC(C)(C)OC(=O)OCOC(=O)Cc1ccc(OP(=O)(O)O)cc1)C(=O)N1CC[C@](O)(c2ccc(Cl)cc2)C(C)(C)C1` shows half-life below 50 h.
Completion: satisfied

Prompt: Consider the molecule CC(O)COC(=O)OC(C)(C)CNC(=O)N[C@@H](C(=O)N1CC[C@](O)(c2ccc(Cl)cc2)C(C)(C)C1)C(C)C (stereo partly drawn) . Is its half-life strictly less than 50 h?
Completion: not satisfied

Prompt: Please state whether half-life is below 50 h for `CC(C)[C@@H](NC(=O)NCC(C)(C)OC(=O)Cc1ccc(OP(=O)(O)O)cc1)C(=O)N1CC[C@](O)(c2ccc(Cl)cc2)C(C)(C)C1`
Completion: not satisfied

Prompt: # TODO verify half-life < 50 h strictly for this molecule: CC(OP(=O)(O)O)C(=O)OC(C)(C)CNC(=O)N[C@@H](C(=O)N1CC[C@](O)(c2ccc(Cl)cc2)C(C)(C)C1)C(C)C (stereo partly drawn)
Completion: not satisfied

The measured values listed here are drawn from patent US8410139B2.
